assay: Elimination half life in ICR mouse at 25 mg/kg, po via bolus administration by LC-MS/MS analysis; assay type: ADME, organism-based; conditions: in vivo, read-out: beta t1/2 (converted)
Measured Metric: half-life (min)

{"columns": ["Compound", "Test Value"],
 "data": [
  ["C/C=C1\\C[N@]2CC[C@H]1C[C@H]2[C@H](O)c1ccnc2ccc(OC3CCC3)cc12", 41.4],
  ["CCOc1ccc2nccc([C@@H](O)[C@@H]3C[C@@H]4CCN3C[C@@H]4CC)c2c1 [ETHYLHYDROCUPREINE]", 60],
  ["C/C=C1/C[N@]2CC[C@H]1C[C@H]2[C@H](O)c1ccnc2ccc(OC3CCC3)cc12", 42]
]}

---

CC50 at 48 h values for the compounds below.
assay: Cytotoxicity against human HepG2 cells assessed as reduction in cell viability after 48 hrs by Alamar Blue assay; format: cell-based

{"columns": ["Compound", "CC50 at 48 h"],
 "data": [
  ["COc1ccc2nccc([C@@H](O)[C@@H]3C[C@@H]4CC[N@@]3C/C4=N/OC(C)C)c2c1", "> 100 µM"],
  ["COc1ccc2nccc([C@@H](O)[C@@H]3C[C@@H]4CC[N@@]3C/C4=N/O)c2c1", "> 100 µM"],
  ["C=C[C@H]1C[N@@]2CC[C@H]1C[C@H]2[C@H](O)c1ccnc2ccc(OC)cc12 [QUININE]", "> 100 µM"],
  ["COc1ccc2nccc([C@@H](O)[C@@H]3C[C@@H]4CC[N@@]3CC4=O)c2c1", "> 100 µM"],
  ["CCCO/N=C1/C[N@]2CC[C@H]1C[C@H]2[C@H](O)c1ccnc2ccc(OC)cc12", "> 100 µM"],
  ["COc1ccc2nccc([C@@H](O)[C@@H]3C[C@@H]4CC[N@@]3CC4=NOC3CCC3)c2c1", "> 100 µM"],
  ["CC[C@H]1C[N@]2CC[C@H]1C[C@H]2[C@H](O)c1ccnc2ccc(OCC(F)(F)F)cc12", "72 µM"],
  ["CCCCON=C1C[N@]2CC[C@H]1C[C@H]2[C@H](O)c1ccnc2ccc(OC)cc12", "> 100 µM"]
]}
